Data provenance is the supplement of paper PMC10567573.

- assay: protein stability index of a GFP-peptide fusion (GPS, HEK-293T) (PSI 1-6); higher = more stable;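 note: 24-mer peptide tiles fused after GFP, lentivirally expressed, FACS-sorted into six equal bins by GFP/DsRed ratio, decoded by Illumina sequencing, PSI is the read-weighted mean bin number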
- testContext: treatment: MLN4924 1 uM, 8 h; c terminus: a fixed tail appended
Would you mind telling me the reported protein stability index of each entry?
Please reply with the number alone, leaving off any unit.

# protein stability index (sequence: DKPVTGPRNKTENGLTPKKKIQVN [ATF6] ) is 4.63

The reported protein stability index of the sequence PLPEAIDPDVGVNSLQSYQLSPNK [PCDHGA10] was 5.25

Measured protein stability index of ESGVDVNSQNEVNGWTCLHWACKR [ANKRD40] : 3.31

protein stability index reading for SELSEHLRDPLTSLSHTELEAAEV [FCHSD1] : 5.32

For reference, reported protein stability index for LTVQFVQGIFVEKYDPTIEDSYRK [RAP1B] stands at 2.1

What the record says about SSPDLDDMKLIILANRLCLPHLVA [RHOBTB2] : protein stability index is 2.44

Documented protein stability index of RWNPWSTEVPYATFTEHPMKYTSE [TPRG1] : 2.74

###

- assay: protein stability index of a GFP-peptide fusion (GPS, HEK-293T) (PSI 1-6); higher = more stable
- testContext: treatment: DMSO; c terminus: a fixed tail appended
Lab note: anything with protein stability index at or over 3 counts as 1.0; the rest go in 0.0.

INPUT: Is it the case that SIPNLAEVKKKGKMKKLGQAMEED [HDAC6] has protein stability index reaching or exceeding 3?
OUTPUT: 1.0

INPUT: protein stability index >= 3 for PALDIFGDLFESTPEVAAAPKPDA [SNAP91] ?
OUTPUT: 1.0

INPUT: Confirm if protein stability index reported for the sequence TQEKKAESKEPIEEEPTGAGLNKD [SDE2] is 3 or above.
OUTPUT: 1.0

INPUT: Item YRFDSSSCSSEDNLSLVCLPRSED [DRICH1] with protein stability index of 3 or above?
OUTPUT: 1.0

INPUT: Please check the record EAAKGGHTSVVCYLLDYPNNLLSA [ANKRD17] and state if its protein stability index is at or above 3.
OUTPUT: 0.0

INPUT: Please tell me: is the sequence IAMAVYTYLRLIVDHHGTAQLQAL [INTS3] at or over 3 in terms of protein stability index?
OUTPUT: 1.0

INPUT: State whether the measured protein stability index reaches 3, counting equality as reaching it, for NNHESLDEELHLLIISCRKLFYFK [FBXO39]
OUTPUT: 0.0

INPUT: protein stability index >= 3 for CCVDVKPISQEKIESERALISQCG [DUSP5] ?
OUTPUT: 1.0

INPUT: hey, is protein stability index for this one >= 3? EEDIQGPTKADTEKWAEGGGHSRE [CHGB]
OUTPUT: 1.0

INPUT: Quick check, protein stability index >= 3? NATAPRSPSHSPEHRRTARRTPPG [ELOA2]
OUTPUT: 1.0

INPUT: Could you verify whether the entry KSSTVGLVTLNDMKAKQEALVKER [FAM50A] shows protein stability index of no less than 3?
OUTPUT: 1.0

INPUT: In plain terms: is recorded protein stability index at least 3 for YMDTKLLVARFLEQSSCTMTPDIH [FAM189A2] ?
OUTPUT: 0.0

INPUT: Reported protein stability index at or above 3? EKLIQERSQQQEPLLCPSYQSYFK [KRT34]
OUTPUT: 1.0

INPUT: Has RWETSSWSECSRTCGEGYQFRVVR [ADAMTSL2] a recorded protein stability index greater than or equal to 3?
OUTPUT: 0.0

INPUT: Entry EELEEDIRKKLKDSGDVSNVIEKV [RHOBTB3] : is its protein stability index no less than 3?
OUTPUT: 1.0

INPUT: Is protein stability index at least 3? Consider EWARALETRDWGGAQFEGEKGRAL [ZSWIM9]
OUTPUT: 1.0

INPUT: Has QQIEEQRVQVQVVERAQQVAVQEQ [FLOT1] a recorded protein stability index greater than or equal to 3?
OUTPUT: 1.0

INPUT: Given VSLKQEGDDQPSETDHLSMEEEDP [TPRG1] , state whether its protein stability index is at least 3.
OUTPUT: 1.0

INPUT: Does THEEGSYLFWEFATDNYDIGFGVY [ACBD3] have a reported protein stability index of at least 3?
OUTPUT: 0.0

###

- assay: protein stability index of a GFP-peptide fusion (GPS, HEK-293T) (PSI 1-6); higher = more stable
- testContext: treatment: MLN4924 1 uM, 8 h; c terminus: a fixed tail appended
experimentalEndpoint: protein stability index
Output spec: single numeric token, no unit.

Kindly note the recorded protein stability index for CHFQALGCRTTHSNQEVLQSCLLV [PYCR3] , which is 2.67

protein stability index recorded for this sequence, GPLDIWAVVKPGNTKEKIAFFASH [FBXO34] , is 2.78

// protein stability index value for ASSLNGGNIKGIEGHSPGNLPKFC [ZC2HC1A] : 4.02

// recorded protein stability index for GRARATGGDLEEQQHAEGSPEPGT [DNAAF3] : 5.54

Consider KALWEDKTSLWEEENALWEEERAF [CCDC70] . Its measured protein stability index is 3.87

What the record says about PRCPRMVLSLKEGAREEDLDAVEA [FBXO3] : protein stability index is 5.27

# protein stability index of IGKLLYLEDFFVMSDYRGFGIGSE [SAT1] = 2.9

The sequence identified as KRANAAFLIGAYAVIYLKKTPEEA [CDC14A] registered its protein stability index at 2.21

get_value(item= GKTPTVRAALICLTLVLVASVLLQ [CD207] , readout=protein stability index) returns 3.11

Value of measured protein stability index for the entry APEAKDGSSFSGRVFRVTFLMLAV [APMAP] : 2.77

protein stability index in this record for LPRRPRKGSSELGFPRVAPEDEVI [RNF208] : 4.33

Recorded protein stability index (sequence ARDTVQVELIPEKKGLFLKHVEYE [SNX8] ): 3.73

// WPSAKSAGWTLATLGEQGLPHQSH [SCNN1D] : protein stability index value = 3.17

Record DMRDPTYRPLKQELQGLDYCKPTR [SPSB1] . Reported protein stability index: 4.04

Lookup result for EWARALETRDWGGAQFEGEKGRAL [ZSWIM9] ; measured protein stability index: 3.9

Noted for GVWAVIISHQQCWASTSPGTDLPL [TRIM15] : its protein stability index reads 2.67

QDACQAQAREKELLELQSQQACTH [CCDC89] has a reported protein stability index of 4.9

The sequence listed as AGAEPLPRNGDQWHEIRQGRLPRI [WEE1] shows protein stability index equal to 4.24

Form: sequence = PSEHVQGKSPVNMVTVAMVAGQCE [ZNF649] ; protein stability index = 4.26

Please fill in: protein stability index reported for RRDEQDDDDKGDSKETRLTLMEEV [GOLPH3] = 5.51

The measured protein stability index associated with LLLENGAGINTHSNEFKESALTLA [ANKRD17] reads 2.76

Memo: PSSLSSSEGSSSSSSSSSSSSSSA [NFE2L1] , reported protein stability index: 5.47

Value of protein stability index reported for the sequence EEELNFEKGETMEVIEKPENDPEW [NCK2] is 5.55

For this sequence ( QCGETMKETVNVKTVCGYYTSAGT [GMCL1] ), measured protein stability index is 3.77

Reported protein stability index for PEENYPSLQMSSAEMPHTETVSPL [NANOGP8] was 5.28

Sure, the documented protein stability index for TWKSGKQTMLSHYRPFYVNKGNGI [TRIM29] is 2.4

protein stability index measured on LEEAEGAVGYQPEYSKFCRMSYQD [NFE2L1] = 3.05

###

- assay: protein stability index of a GFP-peptide fusion (GPS, HEK-293T) (PSI 1-6); higher = more stable
- testContext: treatment: MLN4924 1 uM, 8 h; c terminus: a fixed tail appended
Exercise: state measured protein stability index for each of the sequences provided.

Value of protein stability index reported for the sequence MYHPRELYPSLGAGYRLGPAQPGA [TBX6] is 2.71

For reference, reported protein stability index for IDKGDESWVTDMCKVGASSDPCGQ [PNLIPRP1] stands at 4.66

The measured protein stability index associated with SHLVIHNLFEGMIWFIVPISCVIC [CDS2] reads 2.81

For reference, reported protein stability index for IDAIYSVIDDAKQYVYIAVMDYLP [PLD5] stands at 3.73

Reported protein stability index of LEVMEEEELANLRASQREYEELRN [RSPH3] : 5.09

Item: PKNREYDRFYVINYLVRLSFHNLK [ZNF277] | protein stability index: 2.29

The sequence identified as PEGQKVLFVTFLLIYMVTIMGNLL [OR4A15] registered its protein stability index at 3.24

Sample ELDEEEVKAATTEPTEVEEVVPAL [BCL2L13] ; protein stability index observed: 5.54

For record KTCSRVDHCAQQDHGCEQLCLNTE [MATN2] the listed protein stability index is 4.77

For NPKLPNISLDVLQPSFPEILLESH [POMT2] the sequence record lists protein stability index as 3.84

Given item PLRERARKLSQGILIIRFEMPYNI [YJU2B] , the value recorded as its protein stability index is 2.62

// protein stability index value for KLQKEKEELERRFEDEVKRLGWQQ [MTUS2] : 4.6

Lab book: protein stability index of AAEEPGVRGLLASLFAFKSFRENW [C2CD2L] noted as 2.65

Entry KGNPEEEDVDTSQVLYEWEQGFSQ [CTNNB1] ; protein stability index = 5.25

For HNIVHVHFDATRGWLLTSGTDKVI [WDFY2] the sequence record lists protein stability index as 2.25

# sequence RVQGGCYRFDSSSCSSEDNLSLVC [DRICH1] ; its protein stability index = 2.62

Looking up RRKQRYWPFSMDCTGTEAHISSCK [LOXL2] , I see its protein stability index listed as 3.52

Item: VNKLKWNLAAMTPHDFIEHFLSKM [CCND1] | protein stability index: 2.51

The reported value for VVHRSDEQQHYFNTPFQLSIAPPE [PPTC7] in terms of protein stability index is 4

Consider THEEGSYLFWEFATDNYDIGFGVY [ACBD3] . Its measured protein stability index is 2.15

Form field protein stability index, entry EEAQPMAAPEGKRSLANGPNAGEQ [EID1] : 5.48

For MRFASGRPAFVRVRRGHSHLAPSE the sequence record lists protein stability index as 3.29

Lookup result for VIKGVLFRIFIIWAISSWFRRGPA [CLPTM1] ; measured protein stability index: 2.87

Lab book: protein stability index of RQDADAWTLYKILDSCKQLTLAQG [SMG5] noted as 2.32

Lookup result for EAAAAEEGLRELQRSRRLCHEDVE [DAPK3] ; measured protein stability index: 5.4

The sequence listed as EHNSSLVSQQTGSPGKQPGENSDC [ZNF8] shows protein stability index equal to 5.39

The reported protein stability index of the sequence WIGYEHTSFCGQQFILERGEYPRW [CRYBA1] was 2.21
